Data provenance: paper PMC12670395

The following are reported IC50 results, target or system human IP6K1 (Homo sapiens).
REPORTED PROPERTY: IC50 (nM)

O=C(Nc1cccc(-c2onc3ccc(-c4nnn[nH]4)cc23)c1)C1CCCC1 : 40.1
Cc1cc(C)cc(-c2onc3ccc([C@H]4C[C@@H]4C(=O)O)cc23)c1 : 45
c1ccc(-c2onc3ccc(-c4nnn[nH]4)cc23)cc1 : 38

====

System: human IPMK
ASSAY DETAILS: IPMK kinase activity assay (33P-radiolabeled HPLC assay)
Assay type: biochemical
ASSAY SETUP: ratio of IP6K1 IC50 to IPMK IC50
Method: For all enzyme assays, a serial dilution of the enzyme was performed in the kinase assay to determine the linear range of the enzyme concentration to be used. We prepared ^33P-1,3,4,5-IP4 by incubating 1,4,5-IP3, ^33P-ATP, and IPMK, isolated the product with a 30 K d MW cutoff filter. […] Assays were analyzed by HPLC, using a PartiSphere SAX 120, 5 μm, 4.6 × 125 mm HPLC column with a 250 μL injection volume. […] Radiochromatography data were collected and analyzed using Laura software (v6.1.2.36).
REPORTED PROPERTY: IP6K1/IPMK

Below, 8 molecules whose answers are already recorded.
Cc1cc(C)cc(-c2onc3ccc(C(=O)O)cc23)c1 : 3
c1ccc(-c2onc3ccc(-c4nnn[nH]4)cc23)cc1 : 10
FC(F)(F)Oc1ccc(-c2onc3ccc(-c4nnn[nH]4)cc23)cc1 : 13
FC(F)(F)c1ccc(-c2onc3ccc(-c4nnn[nH]4)cc23)cc1 : 9.2
O=C(Nc1cccc(-c2onc3ccc(-c4nnn[nH]4)cc23)c1)C1CCCC1 : 36
c1ccc(Oc2ccc(-c3onc4ccc(-c5nnn[nH]5)cc34)cc2)cc1 : 115
O=C(Nc1ccc(-c2onc3ccc(-c4nnn[nH]4)cc23)cc1)C1CC1 : 10
c1cc(OC2CCNCC2)cc(-c2onc3ccc(-c4nnn[nH]4)cc23)c1 : 8.8

A = Cc1cc(C)cc(-c2onc3ccc(-c4nnn[nH]4)cc23)c1
B = Clc1cnc(Oc2cccc(-c3onc4ccc(-c5nnn[nH]5)cc34)c2)c(Cl)c1
Which of the two items, A and B , has the greater recorded IP6K1/IPMK? Record your answer as the label of the chosen record.
A
(A: 13, B: 1.9)
